System: Leishmania mexicana
Assay Info: Antileishmanial activity against Leishmania mexicana MNYC/BZ/62/M379 amastigotes infected in mouse RAW264.7 cells assessed as parasite viability measured after 24 hrs by alamarBlue staining based fluorescence analysis
Format: functional
Below: a set of entries, each annotated with reported ED50.
Kindly provide the numeric value in µM only, without the unit symbol.

The measured ED50 that CCCCCNCC(=O)N(CC(=O)N(CC(=O)N(CCCCC)CC(=O)N(CC(=O)N(CC(=O)N(CCCCN)CC(=O)N(CC(=O)N(CC(=O)N(CCCCN)CC(=O)N(CC(=O)N(CC(N)=O)[C@@H](C)c1ccccc1)[C@@H](C)c1ccccc1)C(C)c1ccccc1)[C@@H](C)c1ccccc1)C(C)c1ccccc1)[C@@H](C)c1ccccc1)C(C)c1ccccc1)[C@@H](C)c1ccccc1 (single isomer, unassigned) showed for Leishmania mexicana is 1.6

Next item in the queue.
The measured ED50 that C[C@@H]1[C@H](O)[C@@H](C)/C=C/C=C/C=C/C=C/C=C/C=C/C=C/[C@H](O[C@@H]2O[C@H](C)[C@@H](O)[C@H](N)[C@@H]2O)C[C@@H]2O[C@](O)(C[C@@H](O)C[C@@H](O)[C@H](O)CC[C@@H](O)C[C@@H](O)CC(=O)O[C@H]1C)C[C@H](O)[C@H]2C(=O)O [AMPHOTERICIN B] showed for Leishmania mexicana is 0.195

These data points were gathered from ChEMBL document CHEMBL3817808.
